TARGET OF ASSAY: ligand binding domain of human RORγ (Homo sapiens, UniProt P51449)
Construct: host or cells: HEK293t
Sequence (P51449 269-508 limits assumed): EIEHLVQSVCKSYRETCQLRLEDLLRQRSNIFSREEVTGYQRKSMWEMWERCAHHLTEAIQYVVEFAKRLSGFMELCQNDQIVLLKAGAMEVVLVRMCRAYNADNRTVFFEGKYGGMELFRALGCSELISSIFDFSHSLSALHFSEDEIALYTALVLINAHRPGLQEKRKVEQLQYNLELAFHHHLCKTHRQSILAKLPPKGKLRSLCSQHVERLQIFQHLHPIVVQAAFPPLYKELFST
ASSAY NAME: RORγ Reporter Assay (Gal4)
Assay type: cell-based
REPORTED CONDITIONS: HEK-293T, 1 μM test compound, HEK293t RORγ reporter cells, 24 hour; read-out: Gal4 activity range @ 1 μM (% inhibition)
A collection of compounds and their measured inhibition at 1 µM

COMPOUND | inhibition at 1 µM
Cc1ccc(CN(C)c2ncnc(NCc3ccc(CC(N)=O)cc3)c2F)c(C)c1 | > 20%
CN(Cc1cccc(-n2cccn2)c1)c1ncnc(NC[C@H]2CC[C@H](NS(=O)(=O)C(F)(F)F)CC2)c1F | > 50%
Cc1ccc(CNc2ncnc(N(Cc3ccc(C(F)(F)F)cc3)C3CC3)c2F)cn1 | > 80%
CS(=O)(=O)CC1(CNc2ncnc(N(Cc3ccc(C(F)(F)F)cc3)C3CC3)c2F)CCOCC1 | > 80%
CCCn1nc(C)cc1CN(C)c1ncnc(NCC2CCN(S(C)(=O)=O)CC2)c1F | > 20%
Fc1c(NCc2ccc(Cc3nnn[nH]3)cc2)ncnc1N(Cc1ccc(-n2cccn2)cc1)C1CC1 | > 50%

Query `CN(Cc1ccc(C(F)(F)F)cc1)c1ncnc(NCc2ccc(CC(N)=O)cc2)c1F` yields inhibition at 1 µM of > 80%

Query Cc1nc(C)c(C(C)N(C)c2ncnc(NCc3ccc(CC(N)=O)cc3)c2F)s1 (centres unmarked) yields inhibition at 1 µM of > 50%

Query `Fc1c(NCC2CCOCC2)ncnc1N(Cc1ccc(C(F)(F)F)cc1)C1CC1` yields inhibition at 1 µM of > 80%

Query `CS(=O)(=O)N1CCC(CNc2ncnc(N(Cc3ccc(C(F)(F)F)cc3)C3CC3)c2F)CC1` yields inhibition at 1 µM of > 80%

Query CS(=O)(=O)N1CC2CC2(CNc2ncnc(N(Cc3ccc(C(F)(F)F)cc3)C3CC3)c2F)C1 (centres unmarked) yields inhibition at 1 µM of > 80%

Query `CS(=O)(=O)N1CCC(C2(Nc3ncnc(N(Cc4ccc(C(F)(F)F)cc4)C4CC4)c3F)CC2)CC1` yields inhibition at 1 µM of > 80%

Query `NC(=O)Cc1ccc(CNc2ncnc(N(Cc3c(Cl)cccc3Cl)C3CC3)c2F)cc1` yields inhibition at 1 µM of > 50%

Query `COc1cccc(CN(c2ncnc(NCc3ccc(CC(N)=O)cc3)c2F)C2CC2)c1` yields inhibition at 1 µM of > 0%

Query `NC(=O)Cc1ccc(CNc2ncnc(N(Cc3ccccc3Cl)C3CC3)c2F)cc1` yields inhibition at 1 µM of > 50%

Query NC(=O)Cc1ccc(CNc2ncnc(N(Cc3ccc(C(F)(F)F)cc3)C3CCOC3)c2F)cc1 (centres unmarked) yields inhibition at 1 µM of > 50%

Query `N#Cc1ccc(CN(c2ncnc(NCc3ccc(CC(N)=O)cc3)c2F)C2CC2)cc1` yields inhibition at 1 µM of > 80%

Query `NC(=O)Cc1ccc(CNc2ncnc(N(Cc3ccnc(C(F)(F)F)c3)C3CC3)c2F)cc1` yields inhibition at 1 µM of > 50%

Query `NC(=O)Cc1ccc(CNc2ncnc(N(Cc3ccc(C(F)(F)F)cc3O)C3CC3)c2F)cc1` yields inhibition at 1 µM of > 80%

Query CCN(CC1COc2ccccc2O1)c1ncnc(NCc2ccc(CC(N)=O)cc2)c1F (centres unmarked) yields inhibition at 1 µM of > 50%
